# System: Human recombinant MMP-13 (Homo sapiens, UniProt P45452)
# Construct: made in house; host or cells: baculovirus / insect cells
# Protocol Summary: In vitro MMP inhibition, Ki determination (fluorogenic substrate II)
# Type: biochemical
# Test Settings: value in parentheses
Known Ki of a selection of compounds
All answers are understood in nM, so give the number only.

Need Ki of O=C(NO)C1(S(=O)(=O)c2ccc(OCCCOc3cncnc3)cc2)CCOCC1 [Example 559] , thanks.
1.51

How about this compound: COCCN1CCC(C(=O)NO)(S(=O)(=O)c2ccc(OCCCc3cccc(-c4cccnc4)c3)cc2)CC1 [Example 509]
0.297

How about this compound: N#Cc1ccc(-c2cccc(CCCOc3ccc(S(=O)(=O)C4(C(=O)NO)CCOCC4)cc3)c2)cc1 [Example 624]
0.9

How about this compound: O=C(NO)C1(S(=O)(=O)c2ccc(OCCCc3cccc(-c4cccc(O)c4)c3)cc2)CCOCC1 [Example 530]
7.33
